The measured values listed here are drawn from patent US20250346592A1.

Target: hPAD4 enzyme (Homo sapiens (Human), UniProt Q9UM07)
Sequence (Q9UM07 whole entry): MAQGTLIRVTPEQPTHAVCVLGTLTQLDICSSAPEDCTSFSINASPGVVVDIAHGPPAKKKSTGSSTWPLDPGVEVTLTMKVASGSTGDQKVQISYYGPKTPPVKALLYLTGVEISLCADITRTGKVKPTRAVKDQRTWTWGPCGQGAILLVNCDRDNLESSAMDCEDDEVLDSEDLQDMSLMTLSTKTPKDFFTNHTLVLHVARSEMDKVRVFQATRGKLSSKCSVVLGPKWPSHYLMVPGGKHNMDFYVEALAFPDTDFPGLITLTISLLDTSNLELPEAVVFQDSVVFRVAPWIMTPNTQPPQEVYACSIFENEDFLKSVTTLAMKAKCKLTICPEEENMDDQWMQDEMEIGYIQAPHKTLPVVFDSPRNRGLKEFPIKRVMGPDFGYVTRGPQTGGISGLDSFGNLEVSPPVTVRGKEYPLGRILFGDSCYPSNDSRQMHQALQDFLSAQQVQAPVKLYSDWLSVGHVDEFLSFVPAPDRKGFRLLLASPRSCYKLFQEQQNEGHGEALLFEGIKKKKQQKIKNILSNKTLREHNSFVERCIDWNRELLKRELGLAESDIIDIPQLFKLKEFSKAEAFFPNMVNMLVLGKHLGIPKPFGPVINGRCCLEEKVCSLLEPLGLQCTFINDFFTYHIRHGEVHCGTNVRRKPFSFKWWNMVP
Assay: RFMS2 assay (RapidFire mass spectrometry, TSTGGRQGSHH peptide substrate)
Type: biochemical
Settings: 35 nM recombinant human PAD4, 500 μM TSTGGRQGSHH peptide, 30 minutes at room temperature; read-out: RFMS 2 IC50
experimental.endpoint: IC50

>>> print(df.to_string())
                                   compound    result_value
0  COc1cccc2cc(-c3nc4cc5c(cc4n3C)CCN(C[C@H](N)CF)C5=O)n(CC(C)OC)c12 (single isomer, unassigned) [Example 131]  501 to 1000 nM
1  C[C@@H](COc1cccc2cc(-c3nc4cc5c(cc4n3C)CCN(C[C@H](N)CF)C5=O)n(CC3CC3)c12)n1ccnc1 [Example 212]    11 to 100 nM
2  Cn1c(-c2cc3cccc(OC[C@H](O)C(F)(F)F)c3n2CC2CC2)nc2cc3c(cc21)CCN(C[C@H](N)CF)C3=O [Example 216]   101 to 500 nM

Quick one: IC50 of CCn1c(-c2nc3cc4c(cc3n2C)CCN(C[C@@H](C)N)C4=O)cc2cccnc21 [Example 79] ?
> 1000 nM

Fill in the blank: the reported IC50 of Cn1c(-c2cc3cccc(OCCn4cnnc4)c3n2CC2CC2)nc2cc3c(cc21)CCN(C[C@H](N)CF)C3=O [Example 210] is ____.
11 to 100 nM

What does the data say about its IC50? Entry: Cn1c(-c2cc3cccc(OCCn4cnnn4)c3n2CC2CC2)nc2cc3c(cc21)CCN(C[C@H](N)CF)C3=O [Example 186]
11 to 100 nM

I have this compound here, CCN[C@H](C)CN1CCc2cc3c(cc2C1=O)nc(-c1cc2ccccc2n1CC1CC1)n3C [Example 2] , and I need its recorded IC50.
501 to 1000 nM

----------
Target: hPAD4 enzyme (Homo sapiens (Human), UniProt Q9UM07)
Assay: RFMS2 assay (RapidFire mass spectrometry, TSTGGRQGSHH peptide substrate)
Format: biochemical
Details: 35 nM recombinant human PAD4, 500 μM TSTGGRQGSHH peptide, 30 minutes at room temperature; read-out: RFMS 2 IC50
Overview of recorded IC50 for various molecules

For the record Cn1c(-c2cc3cccc(OC[C@@H]4CCC(=O)N4)c3n2CC2CC2)nc2cc3c(cc21)CCN(C[C@H](N)CF)C3=O , what value of IC50 is listed for hPAD4 enzyme (Homo sapiens (Human), UniProt Q9UM07)?
101 to 500 nM

Please provide the recorded IC50 for Cc1nnc(Cn2c(-c3nc4cc5c(cc4n3C)CCN(C[C@H](N)CF)C5=O)cc3ccccc32)o1 , tested on hPAD4 enzyme (Homo sapiens (Human), UniProt Q9UM07).
> 1000 nM

Item C[C@@H](N)CN1CCc2cc3c(cc2C1=O)nc(-c1cc2ccc(C(F)(F)F)cc2n1CC1CC1)n3C with hPAD4 enzyme (Homo sapiens (Human), UniProt Q9UM07) - IC50?
101 to 500 nM

Give hPAD4 enzyme (Homo sapiens (Human), UniProt Q9UM07) IC50 for COc1cccc2cc(-c3nc4cc5c(cc4n3C)CCN(C[C@H](N)CF)C5=O)n(Cc3nnco3)c12
101 to 500 nM

Fill in the recorded IC50 for this molecule, with hPAD4 enzyme (Homo sapiens (Human), UniProt Q9UM07) as test system: Cn1c(-c2cc3cccc(OC[C@@H]4CNC(=O)O4)c3n2CC2CC2)nc2cc3c(cc21)CCN(C[C@H](N)CF)C3=O
11 to 100 nM

Hello, I am looking for reported IC50 with hPAD4 enzyme (Homo sapiens (Human), UniProt Q9UM07) for Cn1c(-c2cc3cccc(OCC4CC(F)(F)C(=O)N4)c3n2CC2CC2)nc2cc3c(cc21)CCN(C[C@H](N)CF)C3=O (some centres unmarked) . Could you help?
101 to 500 nM

Request: IC50, test system hPAD4 enzyme (Homo sapiens (Human), UniProt Q9UM07), entry COc1nccc2cc(-c3nc4cc5c(cc4n3C)CCN(C[C@H](N)CF)C5=O)n(CC3CC3)c12
501 to 1000 nM

Identify the measured IC50 of COc1cccc2cc(-c3nc4cc5c(cc4n3C)CCN(C[C@H](N)CF)C5=O)n(Cc3nc(C)no3)c12 for hPAD4 enzyme (Homo sapiens (Human), UniProt Q9UM07).
101 to 500 nM

Query IC50 on hPAD4 enzyme (Homo sapiens (Human), UniProt Q9UM07) for COc1cccc2cc(-c3nc4cc5c(cc4n3C)CCN(C[C@H](N)CF)C5=O)n(Cc3ccno3)c12
11 to 100 nM

Recorded IC50 for CCc1cccc2cc(-c3nc4cc5c(cc4n3C)CCN(C[C@@H](C)N)C5=O)n(CC3CC3)c12 with hPAD4 enzyme (Homo sapiens (Human), UniProt Q9UM07), please?
101 to 500 nM

Return IC50 measured with hPAD4 enzyme (Homo sapiens (Human), UniProt Q9UM07) given this molecule: COc1cccc2cc(-c3nc4cc5c(cc4n3C)CCN(C[C@H](N)CF)C5=O)n(CC(C)OC)c12 (single isomer, unassigned) [Example 130]
101 to 500 nM

Query IC50 on hPAD4 enzyme (Homo sapiens (Human), UniProt Q9UM07) for Cn1c(-c2cc3cccc(OCCc4ccon4)c3n2CC2CC2)nc2cc3c(cc21)CCN(C[C@H](N)CF)C3=O
101 to 500 nM

----------
IC50 reference
Target: hPAD4 enzyme (Homo sapiens (Human))
Assay: RFMS2 assay (RapidFire mass spectrometry, TSTGGRQGSHH peptide substrate)
Assay type: biochemical
Conditions: 35 nM recombinant human PAD4, 500 μM TSTGGRQGSHH peptide, 30 minutes at room temperature; read-out: RFMS 2 IC50

                                   compound  result_value
0  Cn1c(-c2cc3ccccc3n2Cc2ccon2)nc2cc3c(cc21)CCN(C[C@H](N)CF)C3=O     > 1000 nM

Lab note: need IC50 for COC(=O)N[C@H](C)COc1cccc2cc(-c3nc4cc5c(cc4n3C)CCN(C[C@H](N)CF)C5=O)n(CC3CC3)c12 on hPAD4 enzyme (Homo sapiens (Human)), anyone have it?
501 to 1000 nM

Identify the measured IC50 of COc1cc(F)cc2cc(-c3nc4cc5c(cc4n3C)CCN(C[C@H](N)CF)C5=O)n(CC3CC3)c12 for hPAD4 enzyme (Homo sapiens (Human)).
101 to 500 nM

GET /values?readout=IC50&system=hPAD4 enzyme (Homo sapiens (Human))&item= COc1cccc2cc(-c3nc4cc5c(cc4n3C)CCN(C[C@H](N)CF)C5=O)n(Cc3ncco3)c12
101 to 500 nM

What reported IC50 corresponds to Cn1c(-c2cc3cccc(OCc4cocn4)c3n2CC2CC2)nc2cc3c(cc21)CCN(C[C@H](N)CF)C3=O on hPAD4 enzyme (Homo sapiens (Human))?
101 to 500 nM

Any idea what IC50 came out for C[C@@H](N)CN1CCc2cc3c(cc2C1=O)nc(-c1cc2ccc(F)nc2n1CC1CC1)n3C on hPAD4 enzyme (Homo sapiens (Human))?
101 to 500 nM

For the record Cn1c(-c2cc3cccc(OCc4ccno4)c3n2CC2CC2)nc2cc3c(cc21)CCN(C[C@H](N)CF)C3=O , what value of IC50 is listed for hPAD4 enzyme (Homo sapiens (Human))?
101 to 500 nM

Could you share what IC50 was measured for COc1cccc2cc(-c3nc4cc5c(cc4n3C)CCN(C[C@H](N)CF)C5=O)n(Cc3cnco3)c12 , tested on hPAD4 enzyme (Homo sapiens (Human))?
101 to 500 nM

----------
// IC50 lookup, one value per entry
Biological target: hPAD4 enzyme (Homo sapiens (Human))
Assay: RFMS1 assay (RapidFire mass spectrometry, BAEE substrate)
Format: biochemical
Settings: 5 nM hPAD4, 250 μM BAEE, 30 min preincubation at 37° C., 90 min reaction; read-out: RFMS 1 IC50
Description: Compounds were solubilized in 100% DMSO to achieve a 10 mM compound concentration. Compound stock solutions were stored at RT. A series of dilutions were prepared in DMSO and mixed 8 times with 20 μL mixing volume. Final top concentration of compound in the assay is 50 μM. […] MRM transition of product and internal standard were monitored at m/z 424.5 to 350.4 and m/z 293 to 247 respectively. […]

>>> print(df.to_string())
                                smiles_data    result_value
0  Cc1nccn1CCOc1cccc2cc(-c3nc4cc5c(cc4n3C)CCN(C[C@H](N)CF)C5=O)n(CC3CC3)c12    11 to 100 nM
1  COc1cc(F)cc2cc(-c3nc4cc5c(cc4n3C)CCN(C[C@H](N)CF)C5=O)n(CC3CC3)c12    11 to 100 nM
2  COC1CCN(c2ccc3cc(-c4nc5cc6c(cc5n4C)CCN(C[C@H](N)CF)C6=O)n(CC4CC4)c3c2)CC1    11 to 100 nM
3  COc1cccc2cc(-c3nc4cc5c(c(F)c4n3C)CCN(C[C@H]3COCCN3)C5=O)n(CC3CC3)c12   101 to 500 nM
4  Cn1c(-c2cc3ccccc3n2CC2CC2)nc2cc3c(cc21)CCN(C[C@H](N)C(F)F)C3=O  501 to 1000 nM
5  Cn1cncc1CCOc1cccc2cc(-c3nc4cc5c(cc4n3C)CCN(C[C@H](N)CF)C5=O)n(CC3CC3)c12    11 to 100 nM

For the next question, use this compound.
Look up IC50: Cn1c(-c2cc3cccc(OCCc4ccno4)c3n2CC2CC2)nc2cc3c(cc21)CCN(C[C@H](N)CF)C3=O
≤ 10 nM
